- Test system: Hep3B
- testName: Quantitative HIF1α MSD immunoassay, Hep3B
- Assay type: cell-based
- conditionSet: Homo sapiens, 5 h, read-out: HIF1α EC50

{"columns": ["smilesStructure", "tgt", "EC50 [µM]"],
 "data": [
  ["CC(C)(C)OC(=O)c1ccc(-n2[nH]cc(-n3ccnn3)c2=O)nc1", "Hep3B", 11.1]
]}

###

- tgt: BBOX1 (Homo sapiens, UniProt O75936)
- Sequence (O75936 1-387): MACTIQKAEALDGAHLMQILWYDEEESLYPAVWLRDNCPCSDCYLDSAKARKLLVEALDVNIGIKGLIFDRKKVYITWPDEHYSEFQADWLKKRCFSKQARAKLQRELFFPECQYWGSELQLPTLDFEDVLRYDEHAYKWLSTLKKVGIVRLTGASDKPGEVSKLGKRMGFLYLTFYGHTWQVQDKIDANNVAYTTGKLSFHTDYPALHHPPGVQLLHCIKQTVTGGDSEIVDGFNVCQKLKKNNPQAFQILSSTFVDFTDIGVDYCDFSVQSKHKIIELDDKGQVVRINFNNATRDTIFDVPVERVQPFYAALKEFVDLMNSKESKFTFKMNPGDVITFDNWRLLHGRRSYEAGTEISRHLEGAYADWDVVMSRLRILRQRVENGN
- testName: BBOX fluoride-release / detection based fluorescence assay
pIC50: −log10 of the molar value.
# key: entry, value: pIC50

{"columns": ["smilesStructure", "operatorSymbol", "pIC50"],
 "data": [
  ["O=C(O)c1ccc(-n2[nH]cc(-n3ccnn3)c2=O)nc1", "<", 4.30],
  ["CC(C)(C)OC(=O)c1ccc(-n2[nH]cc(-n3ccnn3)c2=O)nc1", "=", 4.14],
  ["O=C(O)CNC(=O)c1c(O)c2ccccc2n(Cc2ccccc2)c1=O", "=", 5.02]
]}

###

- tgt: UniProt:Q9H3R0
- Sequence (Q9H3R0 1-1056): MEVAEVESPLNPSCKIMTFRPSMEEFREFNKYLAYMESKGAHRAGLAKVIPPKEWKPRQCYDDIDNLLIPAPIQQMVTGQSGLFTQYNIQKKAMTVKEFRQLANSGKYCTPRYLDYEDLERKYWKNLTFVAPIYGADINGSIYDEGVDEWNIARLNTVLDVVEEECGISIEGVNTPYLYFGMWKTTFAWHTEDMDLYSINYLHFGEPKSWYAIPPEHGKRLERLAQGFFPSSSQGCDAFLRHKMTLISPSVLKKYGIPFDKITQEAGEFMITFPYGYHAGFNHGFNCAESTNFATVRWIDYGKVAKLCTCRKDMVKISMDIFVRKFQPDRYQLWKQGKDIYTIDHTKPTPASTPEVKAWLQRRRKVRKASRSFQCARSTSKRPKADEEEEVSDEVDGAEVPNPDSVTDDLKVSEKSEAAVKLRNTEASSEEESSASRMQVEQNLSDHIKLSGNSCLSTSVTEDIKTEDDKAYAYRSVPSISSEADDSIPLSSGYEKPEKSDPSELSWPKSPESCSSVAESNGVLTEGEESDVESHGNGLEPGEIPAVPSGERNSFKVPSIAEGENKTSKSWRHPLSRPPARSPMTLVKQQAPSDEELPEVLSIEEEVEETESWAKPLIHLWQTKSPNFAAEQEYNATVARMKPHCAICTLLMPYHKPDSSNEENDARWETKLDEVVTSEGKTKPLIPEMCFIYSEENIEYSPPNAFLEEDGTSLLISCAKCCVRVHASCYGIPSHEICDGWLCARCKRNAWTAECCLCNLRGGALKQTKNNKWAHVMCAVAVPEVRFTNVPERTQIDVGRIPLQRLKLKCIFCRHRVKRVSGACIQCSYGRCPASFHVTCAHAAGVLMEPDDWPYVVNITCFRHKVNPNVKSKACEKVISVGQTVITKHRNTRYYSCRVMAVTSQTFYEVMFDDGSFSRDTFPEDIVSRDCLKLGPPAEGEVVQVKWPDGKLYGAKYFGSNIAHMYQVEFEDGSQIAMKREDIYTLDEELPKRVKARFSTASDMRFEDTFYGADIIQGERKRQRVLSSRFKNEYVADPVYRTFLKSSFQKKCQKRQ
- testName: KDM AlphaScreen assay, JMJD2C
pIC50: −log10 of the molar value.
Listed below: pIC50 values for each entry.

{"columns": ["smilesStructure", "pIC50"],
 "data": [
  ["O=C(O)c1ccc(-n2[nH]cc(-n3ccnn3)c2=O)nc1", "< 4.70"],
  ["CC(C)(C)OC(=O)c1ccc(-n2[nH]cc(-n3ccnn3)c2=O)nc1", "< 4.70"]
]}

###

- tgt: JARID1C (KDM5C) (Homo sapiens)
- Sequence (P41229 whole entry): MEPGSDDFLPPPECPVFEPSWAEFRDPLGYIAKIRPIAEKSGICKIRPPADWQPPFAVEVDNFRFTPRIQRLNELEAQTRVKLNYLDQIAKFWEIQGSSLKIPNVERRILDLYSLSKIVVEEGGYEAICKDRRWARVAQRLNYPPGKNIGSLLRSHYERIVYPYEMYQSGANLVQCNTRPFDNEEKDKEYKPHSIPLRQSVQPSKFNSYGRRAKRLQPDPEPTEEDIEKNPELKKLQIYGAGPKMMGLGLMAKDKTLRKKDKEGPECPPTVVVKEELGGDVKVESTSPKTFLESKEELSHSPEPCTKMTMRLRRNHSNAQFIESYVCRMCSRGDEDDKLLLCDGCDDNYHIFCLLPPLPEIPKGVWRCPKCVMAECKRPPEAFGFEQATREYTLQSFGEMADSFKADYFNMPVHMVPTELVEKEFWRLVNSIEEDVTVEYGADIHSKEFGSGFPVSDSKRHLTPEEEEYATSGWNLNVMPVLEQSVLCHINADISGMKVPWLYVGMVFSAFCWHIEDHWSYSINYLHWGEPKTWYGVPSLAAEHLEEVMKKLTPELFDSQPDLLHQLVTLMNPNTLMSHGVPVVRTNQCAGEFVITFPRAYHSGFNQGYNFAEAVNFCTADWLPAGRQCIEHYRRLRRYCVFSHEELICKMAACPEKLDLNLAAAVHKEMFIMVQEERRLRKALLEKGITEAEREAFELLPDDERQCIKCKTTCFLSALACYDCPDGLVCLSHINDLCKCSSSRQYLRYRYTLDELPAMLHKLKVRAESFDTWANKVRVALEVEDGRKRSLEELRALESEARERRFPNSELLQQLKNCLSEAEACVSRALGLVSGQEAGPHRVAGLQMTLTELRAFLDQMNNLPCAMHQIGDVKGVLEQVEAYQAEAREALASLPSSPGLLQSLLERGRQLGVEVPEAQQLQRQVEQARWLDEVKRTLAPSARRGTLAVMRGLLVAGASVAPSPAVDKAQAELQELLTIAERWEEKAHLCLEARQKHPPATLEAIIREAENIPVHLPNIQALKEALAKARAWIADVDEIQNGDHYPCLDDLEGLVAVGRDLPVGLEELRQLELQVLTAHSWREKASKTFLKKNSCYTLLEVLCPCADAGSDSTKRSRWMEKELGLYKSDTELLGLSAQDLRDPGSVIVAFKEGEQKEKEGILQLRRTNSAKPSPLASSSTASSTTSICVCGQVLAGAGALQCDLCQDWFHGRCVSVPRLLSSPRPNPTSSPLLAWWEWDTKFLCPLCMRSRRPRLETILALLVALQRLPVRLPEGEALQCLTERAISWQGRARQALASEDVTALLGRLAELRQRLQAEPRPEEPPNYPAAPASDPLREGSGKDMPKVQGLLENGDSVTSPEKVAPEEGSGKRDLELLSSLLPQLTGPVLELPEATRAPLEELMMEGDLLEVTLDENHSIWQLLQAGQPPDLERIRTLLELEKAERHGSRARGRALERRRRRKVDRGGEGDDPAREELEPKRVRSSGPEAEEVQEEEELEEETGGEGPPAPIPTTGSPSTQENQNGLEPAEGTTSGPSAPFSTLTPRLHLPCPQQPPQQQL
- testName: KDM AlphaScreen assay, JARID1C
pIC50: −log10 of the molar value.
As shown below, each of these molecules has a reported pIC50 value.
endpoint: pIC50

{"columns": ["molecule", "observedResult"],
 "data": [
  ["O=C(O)c1ccc(-n2[nH]cc(-n3ccnn3)c2=O)nc1 [compound 1]", "< 4.00"],
  ["CC(C)(C)OC(=O)c1ccc(-n2[nH]cc(-n3ccnn3)c2=O)nc1 [IOX4]", "< 4.00"]
]}

###

IC50 values recorded for UniProtKB Q9C0B1
Sequence (Q9C0B1 whole entry): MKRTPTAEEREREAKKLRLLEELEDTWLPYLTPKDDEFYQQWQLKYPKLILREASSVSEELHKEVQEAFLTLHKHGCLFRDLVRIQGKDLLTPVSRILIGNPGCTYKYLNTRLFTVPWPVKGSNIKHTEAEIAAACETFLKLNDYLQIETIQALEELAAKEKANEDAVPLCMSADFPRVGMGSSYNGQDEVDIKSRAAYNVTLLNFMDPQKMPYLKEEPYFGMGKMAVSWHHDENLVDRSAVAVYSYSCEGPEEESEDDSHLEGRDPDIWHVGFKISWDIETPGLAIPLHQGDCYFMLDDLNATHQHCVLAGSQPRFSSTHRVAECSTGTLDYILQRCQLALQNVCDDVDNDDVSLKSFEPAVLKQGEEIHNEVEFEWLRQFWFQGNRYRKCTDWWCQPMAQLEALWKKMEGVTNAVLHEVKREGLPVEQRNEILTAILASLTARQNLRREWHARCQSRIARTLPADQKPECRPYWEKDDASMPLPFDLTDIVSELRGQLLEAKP

{"columns": ["smilesStructure", "tgt", "measurementUnit", "IC50"],
 "data": [
  ["O=C(O)CNC(=O)c1c(O)c2ccccc2n(Cc2ccccc2)c1=O", "UniProtKB Q9C0B1", "µM", 11],
  ["CC(C)(C)OC(=O)c1ccc(-n2[nH]cc(-n3ccnn3)c2=O)nc1", "UniProtKB Q9C0B1", "µM", 49]
]}

###

- tgt: UniProt O15054
- Sequence (O15054 whole entry): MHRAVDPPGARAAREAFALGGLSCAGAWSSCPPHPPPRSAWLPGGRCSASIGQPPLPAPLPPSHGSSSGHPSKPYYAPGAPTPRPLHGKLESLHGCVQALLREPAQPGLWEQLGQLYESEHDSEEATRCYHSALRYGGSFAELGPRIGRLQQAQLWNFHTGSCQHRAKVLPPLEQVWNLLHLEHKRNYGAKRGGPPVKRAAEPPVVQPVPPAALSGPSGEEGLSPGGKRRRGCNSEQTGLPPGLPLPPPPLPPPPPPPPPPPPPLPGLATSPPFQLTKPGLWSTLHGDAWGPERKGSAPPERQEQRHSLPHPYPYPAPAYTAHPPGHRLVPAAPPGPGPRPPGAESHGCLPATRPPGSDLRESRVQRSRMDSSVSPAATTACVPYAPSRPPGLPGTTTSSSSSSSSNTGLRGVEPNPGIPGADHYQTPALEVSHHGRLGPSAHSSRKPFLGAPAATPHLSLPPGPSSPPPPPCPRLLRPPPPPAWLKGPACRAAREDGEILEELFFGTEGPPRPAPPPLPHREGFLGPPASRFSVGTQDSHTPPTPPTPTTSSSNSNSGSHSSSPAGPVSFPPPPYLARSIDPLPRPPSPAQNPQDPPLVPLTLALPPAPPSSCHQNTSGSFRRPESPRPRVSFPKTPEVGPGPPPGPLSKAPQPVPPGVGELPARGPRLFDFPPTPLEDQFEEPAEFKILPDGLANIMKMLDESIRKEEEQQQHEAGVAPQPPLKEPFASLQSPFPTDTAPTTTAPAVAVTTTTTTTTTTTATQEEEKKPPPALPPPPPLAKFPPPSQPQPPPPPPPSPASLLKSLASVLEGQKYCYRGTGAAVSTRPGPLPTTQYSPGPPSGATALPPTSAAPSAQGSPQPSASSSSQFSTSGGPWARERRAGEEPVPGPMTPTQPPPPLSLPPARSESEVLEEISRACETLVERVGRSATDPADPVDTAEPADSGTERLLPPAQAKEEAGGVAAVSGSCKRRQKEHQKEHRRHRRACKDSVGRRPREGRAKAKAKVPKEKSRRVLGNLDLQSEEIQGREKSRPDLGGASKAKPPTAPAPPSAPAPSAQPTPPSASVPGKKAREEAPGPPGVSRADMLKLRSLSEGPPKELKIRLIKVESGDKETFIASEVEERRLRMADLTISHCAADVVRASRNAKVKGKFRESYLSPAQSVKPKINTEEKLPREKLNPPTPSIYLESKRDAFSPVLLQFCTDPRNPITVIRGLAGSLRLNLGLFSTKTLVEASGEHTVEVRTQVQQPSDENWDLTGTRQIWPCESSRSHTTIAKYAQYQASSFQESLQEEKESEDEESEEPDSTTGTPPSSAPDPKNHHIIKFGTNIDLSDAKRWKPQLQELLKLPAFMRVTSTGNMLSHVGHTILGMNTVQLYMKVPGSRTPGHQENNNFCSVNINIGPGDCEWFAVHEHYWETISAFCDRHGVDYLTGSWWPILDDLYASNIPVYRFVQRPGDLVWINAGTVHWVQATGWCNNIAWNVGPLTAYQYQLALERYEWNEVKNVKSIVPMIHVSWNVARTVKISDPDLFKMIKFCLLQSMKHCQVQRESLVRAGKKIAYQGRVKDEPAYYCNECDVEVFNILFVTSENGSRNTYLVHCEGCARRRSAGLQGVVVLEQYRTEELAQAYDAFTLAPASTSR
- testName: KDM AlphaScreen assay, JMJD3
The following compounds are shown together with reported IC50 values.

{"columns": ["smilesStructure", "tgt", "measurementUnit", "operatorSymbol", "IC50"],
 "data": [
  ["CC(C)(C)OC(=O)c1ccc(-n2[nH]cc(-n3ccnn3)c2=O)nc1", "UniProt O15054", "nM", "=", 1400],
  ["O=C(O)c1ccc(-n2[nH]cc(-n3ccnn3)c2=O)nc1", "UniProt O15054", "nM", ">", 20000]
]}

###

- tgt: JMJD2A (KDM4A) (Homo sapiens, UniProt O75164)
- Sequence (O75164 whole entry): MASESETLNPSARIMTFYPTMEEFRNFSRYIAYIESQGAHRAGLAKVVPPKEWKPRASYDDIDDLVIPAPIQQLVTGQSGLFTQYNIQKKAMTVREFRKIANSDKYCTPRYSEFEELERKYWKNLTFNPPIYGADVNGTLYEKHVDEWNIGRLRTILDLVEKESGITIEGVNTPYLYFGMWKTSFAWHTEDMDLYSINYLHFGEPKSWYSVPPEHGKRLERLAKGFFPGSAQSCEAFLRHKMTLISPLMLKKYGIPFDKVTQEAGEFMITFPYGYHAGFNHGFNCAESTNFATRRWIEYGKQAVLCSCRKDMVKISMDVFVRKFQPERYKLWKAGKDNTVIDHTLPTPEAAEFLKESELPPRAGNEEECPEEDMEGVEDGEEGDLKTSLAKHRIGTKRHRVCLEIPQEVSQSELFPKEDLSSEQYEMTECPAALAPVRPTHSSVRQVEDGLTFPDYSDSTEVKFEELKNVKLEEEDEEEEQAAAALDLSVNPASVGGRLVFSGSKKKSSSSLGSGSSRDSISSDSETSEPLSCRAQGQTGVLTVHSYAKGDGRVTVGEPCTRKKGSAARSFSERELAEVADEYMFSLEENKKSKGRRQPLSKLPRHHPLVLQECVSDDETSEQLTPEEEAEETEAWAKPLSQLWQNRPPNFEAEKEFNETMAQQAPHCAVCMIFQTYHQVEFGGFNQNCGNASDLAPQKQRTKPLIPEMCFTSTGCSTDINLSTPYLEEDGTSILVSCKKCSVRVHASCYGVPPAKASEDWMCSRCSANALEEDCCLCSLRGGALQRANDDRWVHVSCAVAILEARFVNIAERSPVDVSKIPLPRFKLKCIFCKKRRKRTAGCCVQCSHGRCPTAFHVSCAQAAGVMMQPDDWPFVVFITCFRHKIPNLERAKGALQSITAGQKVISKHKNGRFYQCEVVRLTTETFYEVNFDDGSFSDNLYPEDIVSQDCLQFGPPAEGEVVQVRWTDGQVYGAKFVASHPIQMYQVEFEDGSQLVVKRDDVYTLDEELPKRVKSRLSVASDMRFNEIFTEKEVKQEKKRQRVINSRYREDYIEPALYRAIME
- testName: KDM AlphaScreen assay, JMJD2A
pIC50: −log10 of the molar value.
endpoint: pIC50

{"columns": ["smilesStructure", "tgt", "observedResult"],
 "data": [
  ["O=C(O)c1ccc(-n2[nH]cc(-n3ccnn3)c2=O)nc1", "JMJD2A (KDM4A) (Homo sapiens, UniProt O75164)", "< 4.70"],
  ["CC(C)(C)OC(=O)c1ccc(-n2[nH]cc(-n3ccnn3)c2=O)nc1", "JMJD2A (KDM4A) (Homo sapiens, UniProt O75164)", "< 4.70"]
]}

Data provenance: paper PMC4492579
